Target: T1, human APJ receptor (human, UniProt P35414 1-380)
T1 sequence (looked up): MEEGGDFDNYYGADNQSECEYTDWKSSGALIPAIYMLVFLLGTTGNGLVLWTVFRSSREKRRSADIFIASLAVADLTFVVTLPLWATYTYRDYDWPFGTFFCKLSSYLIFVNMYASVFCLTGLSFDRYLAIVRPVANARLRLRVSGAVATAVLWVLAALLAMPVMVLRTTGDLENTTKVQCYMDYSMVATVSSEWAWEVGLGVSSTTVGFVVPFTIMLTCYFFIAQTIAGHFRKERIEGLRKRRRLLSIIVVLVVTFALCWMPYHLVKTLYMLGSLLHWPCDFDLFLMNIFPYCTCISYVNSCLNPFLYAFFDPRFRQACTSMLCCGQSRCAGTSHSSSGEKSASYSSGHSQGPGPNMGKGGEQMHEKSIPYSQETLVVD
Assay: cell-based or functional assay
Starred links: 1 amine or outer side, 2 acyl side, 3 side chain; linkers in the order of their positions; H or OH if unused. Non-standard residues stand in square brackets, D forms with d. Primed or numbered codes have the meaning given here. *: point of attachment. NPipG = 2-(piperidin-4-ylamino)acetic acid, O=C(CN(C1CCN([*:3])CC1)[*:1])[*:2]; AC4Abu = α-carboxy-4-aminobutyric acid, O=C(C(CCN[*:1])C(=O)[*:3])[*:2]; dBip = N[C@H](Cc1ccc(-c2ccccc2)cc1)C(=O)O; Oic = O=C(O)[C@@H]1C[C@@H]2CCCC[C@@H]2N1; Phe(4-Cl) = N[C@@H](Cc1ccc(Cl)cc1)C(=O)O; Phe(4-I) = N[C@@H](Cc1ccc(I)cc1)C(=O)O; Palmitoyl = CCCCCCCCCCCCCCCC(=O)*; hArg = N=C(N)NCCCC[C@H](N)C(=O)O; Cha = N[C@@H](CC1CCCCC1)C(=O)O; NMeL = CN[C@@H](CC(C)C)C(=O)O; Nle = CCCC[C@H](N)C(=O)O; Pip′ = not defined here; AEEA = NCCOCCOCC(=O)O; Aib = CC(C)(N)C(=O)O
property: EC50 Human APJ Receptor (nM)
Report the value in nM with no unit label.

# count of solved cases: 2
Ac-E[dR]Q[hArg]P[dR][NMeL]SHKG[Oic][Phe(4-I)]P[dBip]-OH [SEQ ID NO: 75] = 1.56
Ac-[hArg]EQ[hArg]P[dR][NMeL]SHKG[Oic][Phe(4-I)]P[dBip]-OH [SEQ ID NO: 76] = 1.84

Now consider a different binder.
[in] Dear colleague, I am looking for the recorded EC50 Human APJ Receptor of the following binder: Palmitoyl-[AC4Abu][AEEA][AEEA][dQ]RP[NPipG][Cha]SHKG[Pip′][Nle][Aib][Phe(4-Cl)]-OH [SEQ ID NO: 645]
[out] 0.254
